Just for reference, patent US20260062463A1 is where these values come from.

Target: T1, AAV8 (adeno-associated virus 8, Assembled 60-mer capsid of VP1/VP2/VP3 (nested products of one cap gene), amine-coupled to a CM5 chip; the letters give one VP1 subunit only.)
T1 construct: also called adeno-associated virus serotype 8
T1 chain: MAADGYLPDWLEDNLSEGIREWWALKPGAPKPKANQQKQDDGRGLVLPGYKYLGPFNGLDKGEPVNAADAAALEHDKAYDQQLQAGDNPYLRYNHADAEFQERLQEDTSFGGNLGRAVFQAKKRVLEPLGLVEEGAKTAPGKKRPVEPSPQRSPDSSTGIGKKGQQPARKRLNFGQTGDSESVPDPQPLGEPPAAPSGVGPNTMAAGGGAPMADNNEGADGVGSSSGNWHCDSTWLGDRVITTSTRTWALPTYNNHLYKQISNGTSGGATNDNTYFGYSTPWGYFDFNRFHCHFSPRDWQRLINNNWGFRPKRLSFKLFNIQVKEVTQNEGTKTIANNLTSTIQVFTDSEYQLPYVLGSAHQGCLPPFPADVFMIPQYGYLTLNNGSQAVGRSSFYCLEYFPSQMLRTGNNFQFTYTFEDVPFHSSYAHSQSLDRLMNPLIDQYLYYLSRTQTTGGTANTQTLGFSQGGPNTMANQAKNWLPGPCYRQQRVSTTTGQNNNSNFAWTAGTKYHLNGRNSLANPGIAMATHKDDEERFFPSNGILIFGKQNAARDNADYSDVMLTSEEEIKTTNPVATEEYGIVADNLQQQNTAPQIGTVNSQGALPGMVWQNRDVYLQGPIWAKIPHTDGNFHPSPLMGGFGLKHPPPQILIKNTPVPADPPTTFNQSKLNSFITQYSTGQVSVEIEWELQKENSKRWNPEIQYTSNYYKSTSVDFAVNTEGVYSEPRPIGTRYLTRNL
Assay: SPR, AAV amine-coupled to CM5 chip

BINDER	MEASUREMENT_UNIT	koff
A4-C4 (bispecific antibody) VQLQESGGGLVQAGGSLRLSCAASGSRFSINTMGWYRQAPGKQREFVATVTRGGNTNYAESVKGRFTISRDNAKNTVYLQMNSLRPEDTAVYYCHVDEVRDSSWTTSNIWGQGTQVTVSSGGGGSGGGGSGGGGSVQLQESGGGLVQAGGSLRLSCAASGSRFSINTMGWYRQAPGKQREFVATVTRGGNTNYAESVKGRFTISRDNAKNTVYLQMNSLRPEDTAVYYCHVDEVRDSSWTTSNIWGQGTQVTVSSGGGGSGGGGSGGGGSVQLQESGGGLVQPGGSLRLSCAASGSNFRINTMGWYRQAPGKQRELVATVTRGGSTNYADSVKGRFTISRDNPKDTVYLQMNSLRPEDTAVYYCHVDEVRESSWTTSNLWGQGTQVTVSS	s⁻¹	0.00025
